Values from patent US12723100

- TARGET_UNDER_TEST: T1, recombinant human Nectin4-His protein (human, UniProt Q96NY8 32-349)
- T1 construct: Analyte of the SPR assay; May be the same protein as m12; also called human Nectin-4 ECD; not shown: His tag
- T1 sequence: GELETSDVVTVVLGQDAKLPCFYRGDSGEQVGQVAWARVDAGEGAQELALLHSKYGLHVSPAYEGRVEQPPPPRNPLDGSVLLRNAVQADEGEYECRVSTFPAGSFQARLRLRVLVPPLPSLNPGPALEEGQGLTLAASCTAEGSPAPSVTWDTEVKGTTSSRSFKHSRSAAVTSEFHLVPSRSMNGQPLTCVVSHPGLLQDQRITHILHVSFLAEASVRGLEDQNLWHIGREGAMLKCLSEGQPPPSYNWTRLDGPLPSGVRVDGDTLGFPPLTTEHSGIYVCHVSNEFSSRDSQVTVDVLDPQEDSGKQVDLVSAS
- TEST_DETAILS: SPR (BIAcore 3000), antibody captured by anti-human IgG, Nectin4-His as analyte
- Procedure: The binding kinetics of the disclosed anti-Nectin-4-specific antibodies to recombinant human Nectin-4 was determined by Surface plasmon resonance (SPR) using BIAcore 3000 system. […] Data were analyzed using BIAevaluation software (version 4.1.1) by 1:1 binding with mass transfer model with global fit to determine apparent binding kinetics.
Item-by-item account of Kd
Quick note: give the figure in nM, leave out the unit.

*Q* Which value of Kd has been reported for N4_mAb 3 (antibody, human IgG1, V domains shown, Tested as chimera (human IgG1/kappa constants); not shown: human IgG1 constant region (Uniprot P01857); human Kappa light chain constant region (UniProt P01834)) VH: EVQLQQSGAELVKPGASVKLSCTVSGFNIKDTYMHWVKQRPEQGLEWIGRIDPANGNTKYDPKFQGKATIIADKASNTAYLQLSSLTSEDAAVYYCAHYYGSSYFAMDCWGQGTSVTVSS VL: DIVMTQSHKFMSTSVGDRVSITCKASQDVSTAVAWYQQKPGQSPKLLIYWASTRHTGVPDRFTGSGSGTDYTLTISSVQTEDLALYYCQQHYSTPLTFGAGTKLELK in the records?
*A* 17.2

*Q* Look at this binder and give its reported Kd. N4_mAb 1 (antibody, human IgG1, V domains shown, Tested as chimera (murine variable regions, human IgG1/kappa constants); not shown: human IgG1 constant region (Uniprot P01857); human Kappa light chain constant region (UniProt P01834)) VH: QVQLKQSGPGLVQPSQSLSITCTVSGFSLTNYGVNWVRQPPGKGLEWLGVIWSGGSTDYNAAFISRLSISKDISKSQVFFKMNSLQADDTAKYYCAREGYDGYAMDYWGQGTSVTVSS VL: DIQMTQSPASLSVSVGETVTITCRASENIFSSLAWYQQKQGKSPQLLVYGATNLADGVPSRFSGSGSGTQYSLKINSLQSEDFGTYWCQHFWGNPWTFGGGTKLEIK
*A* 1.25

*Q* Consider the binder N4_mAb 2 (antibody, human IgG1, V domains shown, Tested as chimera (human IgG1/kappa constants); not shown: human IgG1 constant region (Uniprot P01857); human Kappa light chain constant region (UniProt P01834)) VH: QVQLKQSGPNLVQPSQSLSITCTVSGFSLTTYGAHWVRQSPGKGLEWLGVIWRGGSTDYNAAFMSRLSITKDNSKSQVFFKMNSLQADDTAIYYCAKIGYDGYAMDNWGQGTSVTVSS VL: DFQVTQSPASLSASVGETVTITCRTSENIHNYLAWYQQKQGKSPQLLVYNAKTLADGVPSRFSGSGSGTQYSLKINSLQPEDFGTYYCQHFWSSPWTFGGGTKLEIK and give its measured Kd.
*A* 0.884
